system.under.test: T1, IL-36R naturally expressed on OVCAR8 cells and on normal human epidermal keratinocytes (NHK cells) (human, UniProt Q9HB29 20-575)
T1 sequence (looked up): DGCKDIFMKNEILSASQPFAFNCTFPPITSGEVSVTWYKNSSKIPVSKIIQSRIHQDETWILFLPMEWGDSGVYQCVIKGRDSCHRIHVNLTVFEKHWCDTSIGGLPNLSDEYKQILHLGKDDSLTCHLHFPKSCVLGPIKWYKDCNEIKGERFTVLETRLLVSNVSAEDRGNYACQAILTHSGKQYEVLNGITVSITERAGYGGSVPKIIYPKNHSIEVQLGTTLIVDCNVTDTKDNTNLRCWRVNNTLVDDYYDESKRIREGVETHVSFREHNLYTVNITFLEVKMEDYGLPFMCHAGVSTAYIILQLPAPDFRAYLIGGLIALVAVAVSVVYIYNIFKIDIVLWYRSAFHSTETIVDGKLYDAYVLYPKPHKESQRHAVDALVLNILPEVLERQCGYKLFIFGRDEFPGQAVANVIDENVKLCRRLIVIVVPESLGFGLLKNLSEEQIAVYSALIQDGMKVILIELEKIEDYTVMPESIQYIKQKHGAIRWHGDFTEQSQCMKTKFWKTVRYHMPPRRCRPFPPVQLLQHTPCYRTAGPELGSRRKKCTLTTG
assay: cell-based or functional assay

binder	unit.descriptor	IC50 (M); hIL36γ; IL-8 production
hz84C4-2.1 (antibody, human IgG4 S228P, kappa, V domains shown, Humanized, human IgG4 / kappa) VH: QVQLVQSGAEVKKPGASVKVSCKASGYFFTSYWMNWVRQAPGQGLEWMGMIHPYDSETRYAQKFQGRVTMTVDKSTSTVYMELSSLRSEDTAVYYCASSTTAFAYWGQGTLVTVSS VL: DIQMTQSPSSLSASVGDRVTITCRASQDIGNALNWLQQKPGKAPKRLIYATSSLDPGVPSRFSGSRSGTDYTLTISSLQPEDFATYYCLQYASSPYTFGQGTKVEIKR	M	1.81e-11
hz84C4-2.5 (antibody, human IgG4 S228P, kappa, V domains shown, Humanized, human IgG4 / kappa) VH: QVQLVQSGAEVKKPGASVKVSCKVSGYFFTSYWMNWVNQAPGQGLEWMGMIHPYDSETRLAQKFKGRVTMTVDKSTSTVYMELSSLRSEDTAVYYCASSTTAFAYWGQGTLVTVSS VL: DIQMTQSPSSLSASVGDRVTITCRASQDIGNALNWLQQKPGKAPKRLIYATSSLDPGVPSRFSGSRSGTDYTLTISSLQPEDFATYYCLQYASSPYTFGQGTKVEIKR	M	8.4e-12
hz84C4-2.3 (antibody, human IgG4 S228P, kappa, V domains shown, Humanized, human IgG4 / kappa) VH: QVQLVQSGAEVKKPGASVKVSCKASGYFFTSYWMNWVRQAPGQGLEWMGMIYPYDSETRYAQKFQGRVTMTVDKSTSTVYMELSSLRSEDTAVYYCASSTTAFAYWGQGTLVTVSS VL: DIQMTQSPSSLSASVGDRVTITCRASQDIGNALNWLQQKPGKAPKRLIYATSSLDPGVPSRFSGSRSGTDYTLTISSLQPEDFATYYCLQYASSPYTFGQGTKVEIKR	M	8.76e-10
